Would you mind telling me the reported EE (%) of each entry?
- Method notes: Encapsulation efficiency of RNA (QUANT-IT RIBOGREEN RNA assay)
- Type: physicochemical
- Condition notes: Table 20-1; rows without footnote mark
- Excerpt: For nanoparticle compositions including an RNA, a QUANT-IT™ RIBOGREEN® RNA assay (Invitrogen Corporation Carlsbad, Calif.) can be used to evaluate the encapsulation of an RNA by the nanoparticle composition. […] The fluorescence intensity can be measured using a fluorescence plate reader (Wallac Victor 1420 Multilablel Counter; Perkin Elmer, Waltham, Mass.) at an excitation wavelength of, for example, about 480 nm and an emission wavelength of, for example, about 520 nm. […]
Answers are plain numbers, in %.

Smiles entry | Val
CCCCCCCCCCCCN(CCCCCCCCCCCC)CCN(CCO)CCCCCCCC(=O)OC(CCCCCCCC)CCCCCCCC | 95.9

Please state, for each entry, its recorded EE (%).
1. CCCCCCCCCCCCN(CCCO)CCN(CCCCCCCCCCCC)CCCCCCCCCCCC
2. CCCCCCCCCCCCCCN(CCO)CCN(CCCCCCCCCCCCCC)CCCCCCCCCCCCCC
3. CCCCCCCCCCCCN(CCCCCCCCCCCC)CCN(CCO)CCCCCCCCC
4. CCCCCCCCCCCCN(CCO)CCN(CCCCCCCCCCCC)CCCCCC(=O)OCCCCCCC

result:
1. 84.7
2. 82.3
3. 98.2
4. 92.4

Please state, for each entry, its recorded EE (%).
1. CCCCCCCCCCCCN(CCO)CCN(CCCCCCCCCCCC)CCCCCCCCCCCC
2. CCCCC/C=C\CCCCCN(CCO)CCN(CCCCCCCCCCCC)CCCCCCCCCCCC
3. CCCCCCCCCCCCN(CCCCCCCCCCCC)CCN(CCO)CCCCCC(=O)OCCCCC

result:
1: 95.2; 2: 95.3; 3: 95.8
